System: Bacteroides dorei
Test: growth AUC relative to DMSO control (median of replicates) (fraction); higher = more growth (less inhibition), active = hit call of the paper
Details: 20 µM; 24 h

[
  {
    "molecule": "CC1=C(c2ccccc2)C(=O)N(C(C)(C)c2cc(Cl)cc(Cl)c2)CO1",
    "growth AUC": 0.981
  },
  {
    "molecule": "Cc1c(C(=O)c2c[nH]n(C)c2=O)ccc(S(C)(=O)=O)c1C1=NOCC1",
    "growth AUC": 0.989
  },
  {
    "molecule": "CCc1cccc(C)c1N(COC(C)C)C(=O)CCl",
    "growth AUC": 1.03
  },
  {
    "molecule": "COc1cc(OC)nc(NC(=O)NS(=O)(=O)c2c(Cl)nc3ccccn23)n1",
    "growth AUC": 1.02
  },
  {
    "molecule": "O=C(O)C1(C(=O)Nc2ccc(Cl)cc2Cl)CC1",
    "growth AUC": 1.05
  },
  {
    "molecule": "COC(=O)c1cccc(C)c1S(=O)(=O)NC(=O)Nc1nc(OCC(F)(F)F)nc(N(C)C)n1",
    "growth AUC": 1.01
  },
  {
    "molecule": "NC1=C(Cl)C(=O)c2ccccc2C1=O",
    "growth AUC": 0.965
  },
  {
    "molecule": "COc1nc(N)nc(NC(C)(C)C)n1",
    "growth AUC": 1.03
  },
  {
    "molecule": "CCCCOCCOC(=O)COc1nc(Cl)c(Cl)cc1Cl",
    "growth AUC": 0.948
  },
  {
    "molecule": "O=C(O)COc1ccc(Cl)c2cccnc12",
    "growth AUC": 0.976
  },
  {
    "molecule": "NC(Cn1cncn1)C(=O)O (stereo unspecified)",
    "growth AUC": 0.983
  }
]

FYI, the data here is from the supplement of paper PMC12669032.
